- measured_on: CePOFUT1 (Caenorhabditis elegans, UniProt Q18014, R240K)
- Construct: codon-optimized synthetic gene in pPICZalphaA with KEX2 cleavage signal, secreted from Pichia pastoris X-33; monomer
- experimental_protocol: isothermal titration calorimetry
- Description: isothermal titration calorimetry on CePOFUT1
endpoint_name: pKd
One number for each entry, as −log10 of the molar value.

Requested read-out: pKd. Entry: Nc1nc2c(ncn2[C@@H]2O[C@H](COP(=O)(O)OP(=O)(O)O)[C@@H](O)[C@H]2O)c(=O)[nH]1 [GDP]
4.21

---

- measured_on: CePOFUT1 (Caenorhabditis elegans, UniProt Q18014, D242A)
- Construct: codon-optimized synthetic gene in pPICZalphaA with KEX2 cleavage signal, secreted from Pichia pastoris X-33; monomer
- experimental_protocol: isothermal titration calorimetry
- Description: isothermal titration calorimetry on CePOFUT1
endpoint_name: Kd (nM)
One number for each entry, in nM.

Notebook: pull reported Kd for CePOFUT1 (Caenorhabditis elegans, UniProt Q18014, D242A), entry Nc1nc2c(ncn2[C@@H]2O[C@H](COP(=O)(O)OP(=O)(O)O)[C@@H](O)[C@H]2O)c(=O)[nH]1 [GDP]
90

---

- measured_on: CePOFUT1 (Caenorhabditis elegans, UniProt Q18014, D244A)
- Construct: codon-optimized synthetic gene in pPICZalphaA with KEX2 cleavage signal, secreted from Pichia pastoris X-33; monomer
- experimental_protocol: isothermal titration calorimetry
endpoint_name: Kd (nM)
Give bare numbers, in nM.

Notebook: pull reported Kd for CePOFUT1 (Caenorhabditis elegans, UniProt Q18014, D244A), entry Nc1nc2c(ncn2[C@@H]2O[C@H](COP(=O)(O)OP(=O)(O)O)[C@@H](O)[C@H]2O)c(=O)[nH]1
100

---

- measured_on: CePOFUT1 (Caenorhabditis elegans, UniProt Q18014, W245A)
- Construct: codon-optimized synthetic gene in pPICZalphaA with KEX2 cleavage signal, secreted from Pichia pastoris X-33; monomer
- experimental_protocol: isothermal titration calorimetry
endpoint_name: pKd
Numbers only, as −log10 of the molar value.

Notebook: pull reported pKd for CePOFUT1 (Caenorhabditis elegans, UniProt Q18014, W245A), entry Nc1nc2c(ncn2[C@@H]2O[C@H](COP(=O)(O)OP(=O)(O)O)[C@@H](O)[C@H]2O)c(=O)[nH]1
5.80

---

- measured_on: CePOFUT1 (Caenorhabditis elegans, UniProt Q18014, F199A)
- Construct: codon-optimized synthetic gene in pPICZalphaA with KEX2 cleavage signal, secreted from Pichia pastoris X-33; monomer
- experimental_protocol: isothermal titration calorimetry
endpoint_name: pKd
Answers are plain numbers, as −log10 of the molar value.

Requested read-out: pKd. Entry: Nc1nc2c(ncn2[C@@H]2O[C@H](COP(=O)(O)OP(=O)(O)O)[C@@H](O)[C@H]2O)c(=O)[nH]1
6.74

---

- measured_on: CePOFUT1 (Caenorhabditis elegans, UniProt Q18014, F357A)
- Construct: codon-optimized synthetic gene in pPICZalphaA with KEX2 cleavage signal, secreted from Pichia pastoris X-33; monomer
- Sequence (Q18014 26-382 F357A): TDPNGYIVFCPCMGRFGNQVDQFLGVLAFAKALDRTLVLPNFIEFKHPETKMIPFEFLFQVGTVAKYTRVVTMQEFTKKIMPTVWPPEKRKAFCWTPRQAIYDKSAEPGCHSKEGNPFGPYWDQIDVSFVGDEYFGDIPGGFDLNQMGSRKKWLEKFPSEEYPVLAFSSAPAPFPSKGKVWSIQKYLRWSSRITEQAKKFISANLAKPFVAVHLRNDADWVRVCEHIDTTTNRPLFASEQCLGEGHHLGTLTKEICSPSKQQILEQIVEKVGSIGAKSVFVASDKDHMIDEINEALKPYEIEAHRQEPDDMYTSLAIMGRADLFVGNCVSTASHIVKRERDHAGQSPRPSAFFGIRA
- experimental_protocol: isothermal titration calorimetry
endpoint_name: Kd (µM)
Give bare numbers, in µM.

Requested read-out: Kd. Entry: Nc1nc2c(ncn2[C@@H]2O[C@H](COP(=O)(O)OP(=O)(O)O)[C@@H](O)[C@H]2O)c(=O)[nH]1 [GDP]
26.9

Hey, just so you know, these numbers are from paper PMC3180450.
